test system: H37RvMA; assay: Tuberculosis Alamar Blue/Resazurin assay (MIC); assay type: cell-based; conditions: Mycobacterium tuberculosis, H37RV; read-out: WT H37Rv MTB Activity
Counter-ions that a name gives are not always drawn.
Measurement Label: MIC

Some solved entries appear below for comparison.
{"columns": ["Molecule", "Readout Value"],
 "data": [
  ["c1ccc(CNCCc2ccc3cc[nH]c3c2)cc1 [B114]", "> 150 µM"],
  ["C[C@@H](CC1=CCCCC1)NCc1ccccc1 [B171]", "> 150 µM"],
  ["c1ccc(CNCCc2ccc3c(c2)OCO3)cc1 [B154]", "> 150 µM"],
  ["CC(Cc1ccn(C(C)C)n1)NCc1ccccc1 (stereo not shown) [B47]", "> 150 µM"],
  ["COc1ccc(C(C)CNCc2ccccc2)cc1OC (stereo not shown) [B44]", "> 150 µM"],
  ["C[Si](C)(C)c1ccccc1CNCCC1CCCCC1 [B341, hydrochloride]", "150 µM"],
  ["C[C@H](CC1=CCCCC1)NCc1ccccc1 [B170]", "> 150 µM"],
  ["C1=CC(CCNCc2ccccc2)CCC1 (stereo not shown) [B160]", "> 150 µM"]
]}

Please go through the list and note MIC for each molecule.
1. Cc1noc(C)c1CC(C)NCc1ccccc1 (stereo not shown) [B26]
2. c1ccc2c(c1)CCN(CCC1CCCCC1)C2 [B417]
3. FC(F)(F)c1ccc(CC2(NCc3ccccc3)CC2)cc1 [B96]
4. CC(Cc1ccccc1)NCc1ccccc1 (stereo not shown) [B8]
5. COc1ccc(CC(C)NCc2ccccc2)c2ccccc12 (stereo not shown) [B201]
6. CC(CC1CCCCC1)NCc1ccccc1O (stereo not shown) [B319]

1. > 150 µM
2. > 150 µM
3. > 150 µM
4. > 150 µM
5. 91 µM
6. 150 µM

Every entry's value here was drawn from patent US11261201B2.
